- Target Desc: IDO1 (Homo sapiens, UniProt P14902)
- Sequence (P14902 whole entry): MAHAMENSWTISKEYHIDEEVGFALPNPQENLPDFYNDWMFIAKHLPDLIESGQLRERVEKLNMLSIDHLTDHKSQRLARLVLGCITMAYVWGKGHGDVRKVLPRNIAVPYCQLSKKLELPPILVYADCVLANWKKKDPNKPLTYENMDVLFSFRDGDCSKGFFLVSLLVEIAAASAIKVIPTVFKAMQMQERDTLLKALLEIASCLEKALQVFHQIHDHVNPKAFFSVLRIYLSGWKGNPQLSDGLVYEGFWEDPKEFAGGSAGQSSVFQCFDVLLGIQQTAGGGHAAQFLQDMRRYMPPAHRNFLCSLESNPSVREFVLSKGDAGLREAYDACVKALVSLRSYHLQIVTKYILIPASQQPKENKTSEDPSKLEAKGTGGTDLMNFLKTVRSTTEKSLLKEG
- Protocol Description: IDO1 Human Whole Blood Assay
- Assay type: cell-based
- Parameters: Human whole blood was drawn in sodium heparin coated tubes from healthy internal donors; from tissue; host or cells: human whole blood from healthy donors, stimulated with LPS and IFNγ
- Condition Description: LPS and IFNγ stimulated
pIC50: −log10 of the molar value.
Readout Kind: pIC50

Guide cases for pIC50, answers given:
[[record]]
molecule = "CC(C(=O)Nc1ccc(Cl)cc1)c1ccc2c(c1)CCCN2C(=O)c1cccc(Cl)c1 (stereo not drawn)"
readout_kind = "pIC50"
obs_value = 7.02

[[record]]
molecule = "Cc1nccc(N2CCCc3nc(C4(C(=O)Nc5ccc(F)cc5)CC(OCc5ccccc5)C4)ccc32)n1 (stereo not drawn) [Example 423, 2,2,2-trifluoroacetate]"
readout_kind = "pIC50"
obs_value = 7.59

[[record]]
molecule = "O=C(N[C@@H](c1ccc2c(n1)CCCN2C(=O)C1CC1)C(F)(F)F)c1ccc(F)cc1"
readout_kind = "pIC50"
obs_value = 7.54

[[record]]
molecule = "CC(NC(=O)c1ccc(F)cc1)c1ccc2c(n1)CCCN2C(=O)c1cc(C(F)(F)F)ccn1 (stereo not drawn)"
readout_kind = "pIC50"
obs_value = 7.30

[[record]]
molecule = "CC(C(=O)Nc1ccc(F)cc1)c1ccc2c(c1)CCCN2Cc1cccc(Cl)c1 (racemic) [Example 224]"
readout_kind = "pIC50"
obs_value = 6.26


A = Cn1ccc(C(=O)N2CCCc3cc(C4(C(=O)Nc5ccc(F)cn5)CCC4)ccc32)n1
B = CC(NC(=O)c1ccc(F)cc1)c1ccc2c(n1)CCCN2c1ccn2nccc2n1 (stereo not drawn)
Decide: A or B , by lowest recorded pIC50. Answer = label.
A
(A: 6.67, B: 7.80)

P = CC1(C(=O)N2CCCc3cc(C4(C(=O)Nc5ccc(F)cc5)CCC4)ccc32)CC1
Q = Cc1ncnc(N2CCCc3nc(C(C)NC(=O)c4ccc(Cl)cc4)ccc32)c1C (stereo not drawn)
Decide: P or Q , by lowest recorded pIC50. Answer = label.
Q
(Q: 6.47, P: 6.94)

* * *

- Target Desc: IDO1 (Homo sapiens, UniProt P14902)
- Protocol Description: IDO1 Cellular Assay in HeLa Cells Stimulated with IFNγ
- Format: cell-based
- Condition Description: read-out: Hela IC50
Readout Kind: IC50 (nM)

[[record]]
compound = "COc1cccc(C(=O)NC(C)c2ccc3c(n2)CCCN3C(=O)OC2CC2)c1 (stereo not drawn)"
readout_kind = "IC50"
obs_value = 973


1 = CC(C(=O)Nc1ccc(F)cc1)c1ccc2c(n1)CCCN2c1ccnc(C2CC2)n1 (stereo not drawn) [Example 365]
2 = CC(NC(=O)c1cccc(C#N)c1)c1ccc2c(n1)CCCN2C(=O)OC1CC1 (stereo not drawn)
Select one: 1 or 2 . Criterion: greater recorded IC50. Answer = label.
2
(2: 5700 nM, 1: 3.62 nM)

* * *

- Target Desc: IDO1 (Homo sapiens)
- Protocol Description: IDO1 Cellular Assay in HeLa Cells Stimulated with IFNγ
- Assay type: cell-based
- Condition Description: about 48 hours, read-out: Hela IC50
Readout Kind: IC50 (µM)

Guide cases for IC50, answers given:
[[record]]
compound = "C[C@H](C(=O)Nc1ccc(F)cc1)c1ccc2c(c1)CCCN2C(=O)CC(F)(F)F [Example 91]"
obs_value = 0.105

[[record]]
compound = "O=C(C1CC1)N1CCc2nc(C3(C(=O)Nc4ccc(F)cc4)CCC3)ccc21 [Example 268]"
obs_value = 0.0079

[[record]]
compound = "COC(=O)N1CCCc2nc(C(C)NC(=O)c3ccc(Cl)cc3)ccc21 (centres unmarked) [Example 213]"
obs_value = 0.0063

[[record]]
compound = "CC(NC(=O)c1ccc(F)cc1)c1ccc2c(n1)CCCN2CC1CC1 (centres unmarked) [Example 227]"
obs_value = 0.0705

[[record]]
compound = "Cc1c(C(=O)N2CCCc3cc(C4(C(=O)Nc5ccc(F)cc5)CCC4)ccc32)cnn1C [Example 111]"
obs_value = 0.0655


1 = O=C(N1CCCC1)N1CCCc2cc(C3(C(=O)Nc4ccc(F)cn4)CCC3)ccc21 [Example 103]
2 = CC(NC(=O)c1ccc(F)cc1)c1ccc2c(n1)CCCN2C(=O)c1c(Cl)cccc1Cl (centres unmarked) [Example 150]
3 = O=C(N1CCCc2cc(C3(C(=O)Nc4ccc(F)cn4)CCC3)ccc21)C1(F)CC1 [Example 99]
Let's sort these by IC50, smallest first. Go ahead? Provide the ranking by listing each label in its place in the requested order.
2, 3, 1

* * *

- Target Desc: IDO1 (Homo sapiens)
- Protocol Description: IDO1 Cellular Assay in HeLa Cells Stimulated with IFNγ
- Type: cell-based
- Condition Description: about 48 hours, read-out: Hela IC50
pIC50: −log10 of the molar value. Where a name gives a salt, the structure may show the parent alone.
Readout Kind: pIC50

Guide cases for pIC50, answers given:
[[record]]
molecule = "C[C@H](C(=O)Nc1ccc(F)cc1)c1ccc2c(c1)CCCN2C(=O)C[C@@H](C)O"
readout_kind = "pIC50"
obs_value = 6.53

[[record]]
molecule = "CC(C)CC(=O)N1CCCc2cc(CNC(=O)c3ccc(Cl)c(F)c3)ccc21"
readout_kind = "pIC50"
obs_value = 7.31

[[record]]
molecule = "CC(NC(=O)c1ccc(F)cc1)c1ccc2c(n1)CCCN2C(=O)c1cccc(C(F)(F)F)c1 (stereo not drawn) [Example 284, trifluoroacetate]"
readout_kind = "pIC50"
obs_value = 8.92


P = CC(C)NC(=O)N1CCCc2cc([C@H](C)C(=O)Nc3ccc(F)cc3)ccc21
Q = CC(C)CC(=O)N1CCCc2cc(CNC(=O)c3ccc(F)c(F)c3)ccc21
Select one: P or Q . Criterion: greater recorded pIC50. Answer = label.
P
(P: 8.49, Q: 6.79)

P = COC(=O)N1CCCc2nc(C3(NC(=O)c4ccc(F)cc4)CC3)ccc21
Q = N#Cc1cccc(C(=O)N2CCCc3nc(C4(NC(=O)c5ccc(F)cc5)CC4)ccc32)c1
R = C[C@H](C(=O)Nc1ccc(F)cc1)c1ccc2c(c1)CCCN2C(=O)[C@@H]1CCCO1
Arrange these molecules by their pIC50, starting with the largest number. Provide the ranking by listing each label in its place in the requested order.
Q, R, P

1 = CCOC(=O)N1CCCc2cc(C3(C(=O)Nc4ccc(F)cn4)CCC3)ccc21
2 = CC(C)CC(=O)N1CCCc2cc([C@H](C)NC(=O)c3ccc(Cl)cc3)ccc21 (single isomer, unassigned)
Decide: 1 or 2 , by lowest recorded pIC50. Answer = label.
2

1 = Cc1cc(C(=O)NCc2ccc3c(c2)CCCN3C(=O)CC(C)C)ccc1Cl
2 = CC(C(=O)Nc1ccc(F)cc1)c1ccc2c(n1)CCCN2C(=O)C1CCOCC1 (stereo not drawn) [Example 165]
Select one: 1 or 2 . Criterion: greater recorded pIC50. Answer = label.
2

* * *

- Target Desc: IDO1 (Homo sapiens, UniProt P14902)
- Protocol Description: IDO1 Human Whole Blood Assay
- Format: cell-based
- Design: Human whole blood was drawn in sodium heparin coated tubes from healthy internal donors; from tissue; host or cells: human whole blood from healthy donors, stimulated with LPS and IFNγ
- Condition Description: LPS and IFNγ stimulated
- Description: IDO1 Human Whole Blood Assay Compounds to be tested were serially diluted in ten 3-fold steps in DMSO starting from 10 mM. […] LPS and IFNγ was prepared in RPMI to a 10× of final conc. (1000 ng/mL), final concentration is 100 ng/mL. Human whole blood was drawn in sodium heparin coated tubes from healthy internal donors. 240 μL of blood was transferred to each of the wells of a v-bottom 96 well plate. 30 μL of compound was transferred from intermediate dilution plate, and incubated for 15 min. […]
pIC50: −log10 of the molar value.
Readout Kind: pIC50

[[record]]
compound = "CC(C(=O)Nc1ccc(Cl)cc1)c1ccc2c(c1)CC(F)CN2C(=O)c1cccc(Cl)c1 (single isomer, unassigned) [Example 259]"
target_desc = "IDO1 (Homo sapiens, UniProt P14902)"
obs_value = 7.39

[[record]]
compound = "CC(C(=O)Nc1ccc(F)cc1)c1ccc2c(n1)CCCN2C(=O)C1CCCO1 (stereo in doubt)"
target_desc = "IDO1 (Homo sapiens, UniProt P14902)"
obs_value = 7.54

[[record]]
compound = "CC(C(=O)Nc1ccc(F)cc1)c1ccc2c(n1)CCCN2C(=O)[C@H]1CCCO1 (stereo partly drawn)"
target_desc = "IDO1 (Homo sapiens, UniProt P14902)"
obs_value = 7.54


* * *

- Target Desc: IDO1 (Homo sapiens, UniProt P14902)
- Protocol Description: IDO1 Cellular Assay in HeLa Cells Stimulated with IFNγ
- Type: cell-based
- Condition Description: about 48 hours, read-out: Hela IC50
pIC50: −log10 of the molar value.
Readout Kind: pIC50

[[record]]
molecule = "O=C(NCc1ccc2c(c1)CCCN2C(=O)c1cccc(Cl)c1)c1cccc(Cl)c1 [Example 16]"
obs_value = 6.93


a = O=C(NC1(c2ccc3c(n2)CCCN3C(=O)C2CCCCO2)CC1)c1ccc(F)cc1 (stereo not drawn) [Example 177]
b = CC(C)C(C(=O)Nc1ccc(F)cc1)c1ccc2c(n1)CCCN2C(=O)C1CC1 (stereo not drawn) [Example 265]
Decide: a or b , by lowest recorded pIC50. Answer = label.
b
